B1: OR4K15 (parent)
chain: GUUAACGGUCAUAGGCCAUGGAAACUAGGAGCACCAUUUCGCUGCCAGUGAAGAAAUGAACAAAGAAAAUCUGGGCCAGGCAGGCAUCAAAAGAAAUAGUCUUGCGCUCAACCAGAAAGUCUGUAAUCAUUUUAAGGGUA

- Variants of: B1
- test description: self-cleavage, relative activity (ratio to wild type); higher = more cleavage; in vitro, sequencing; the parent is a self-cleaving ribozyme

{"variant identifier": "A33U A59G", "self-cleavage": 1.28}
{"variant identifier": "A92G A116G", "self-cleavage": 0.44}
{"variant identifier": "A4G A18U", "self-cleavage": 1.25}
{"variant identifier": "A33U U103C", "self-cleavage": 0.84}
{"variant identifier": "A30C U108C", "self-cleavage": 0}
{"variant identifier": "U70C U87G", "self-cleavage": 0.04}
{"variant identifier": "A11U C88A", "self-cleavage": 1.99}
{"variant identifier": "G48A A59U", "self-cleavage": 0.86}
{"variant identifier": "A18U", "self-cleavage": 1.11}
{"variant identifier": "U108C G137A", "self-cleavage": 0.01}
{"variant identifier": "U57G A62G", "self-cleavage": 0.83}
{"variant identifier": "U39A A125G", "self-cleavage": 1.01}
{"variant identifier": "U38A U131C", "self-cleavage": 1.16}
{"variant identifier": "U43C A118U", "self-cleavage": 0.87}
{"variant identifier": "G8C U122C", "self-cleavage": 1.12}
{"variant identifier": "A56G A62U", "self-cleavage": 2.29}
{"variant identifier": "A117U A118G", "self-cleavage": 0.97}
{"variant identifier": "C25U A67G", "self-cleavage": 1.55}
{"variant identifier": "A23G A51U", "self-cleavage": 1.22}
{"variant identifier": "U72G", "self-cleavage": 0.12}
{"variant identifier": "A23G A86U", "self-cleavage": 1.25}
{"variant identifier": "A69G U72G", "self-cleavage": 0.38}
{"variant identifier": "A22G G53C", "self-cleavage": 1.81}
{"variant identifier": "A67G A68U", "self-cleavage": 1.13}
{"variant identifier": "U37A A96U", "self-cleavage": 1.83}
{"variant identifier": "A22G U120A", "self-cleavage": 1.22}
{"variant identifier": "U43C A89C", "self-cleavage": 1.36}
{"variant identifier": "A96G A118G", "self-cleavage": 1.4}
{"variant identifier": "U26A U57G", "self-cleavage": 0.97}
{"variant identifier": "A13G A135G", "self-cleavage": 0.79}
{"variant identifier": "U9C C46U", "self-cleavage": 1.03}
{"variant identifier": "U37G A52G", "self-cleavage": 1.48}
{"variant identifier": "A52G A110G", "self-cleavage": 0.17}
{"variant identifier": "U43A A90G", "self-cleavage": 0.76}
{"variant identifier": "A118G U120A", "self-cleavage": 2.61}
{"variant identifier": "A30G A89C", "self-cleavage": 0.8}
{"variant identifier": "G73A A82G", "self-cleavage": 0.22}
{"variant identifier": "A22U A126C", "self-cleavage": 1.34}
{"variant identifier": "G41A U127A", "self-cleavage": 2.15}
{"variant identifier": "A68U A69G", "self-cleavage": 0.98}
{"variant identifier": "A33G U39C", "self-cleavage": 0.8}
{"variant identifier": "U2C A114U", "self-cleavage": 0.09}
{"variant identifier": "A47G G74A", "self-cleavage": 0.21}
{"variant identifier": "U3A A27G", "self-cleavage": 1.25}
{"variant identifier": "A11U U132C", "self-cleavage": 0.89}
{"variant identifier": "U108A A116G", "self-cleavage": 0.01}
